Quick reference: normalized growth of the listed items.
test: chemical genetic growth profiling, strain panel (AID 1159580);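 further: tested at 20 µM; growth read once vehicle control cultures reached saturation at 30 °C; 1 = growth at the plate median or of vehicle wells; lower values mean less growth of the strain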; conditions: S. cerevisiae deletion strains, growth OD, locus YJR016C, strain ILV3, stronger effect = lower value
The whole screen tested about 5,500 compounds, of which about 2,000 (36%) were called active. Not shown: some 18% with an inconclusive outcome. The list shows a part of the results.

# Molecule, normalized growth
data = [
    ("N/C(=N/OC(=O)c1cnn(-c2ccc([N+](=O)[O-])cc2)c1C(F)(F)F)c1ccc(Cl)cc1", 0.976),
    ("CC(C)(C)NC(=S)N/N=C\\c1cc(Br)c(O)c(Br)c1", 0.955),
    ("CC(C)/C(=N/OC(=O)c1ccc([N+](=O)[O-])cc1)c1ccccc1", 0.957),
    ("ONC(=Nc1ccccc1Cl)c1ccccc1Cl", 0.986),
    ("O=C(Nc1cc2ccccc2s1)N1CCN(Cc2c(F)cccc2Cl)CC1", 0.997),
    ("O=S(=O)(Nc1ccccc1Sc1c(Cl)cncc1Cl)c1ccc(Cl)cc1", 0.974),
    ("COc1ccccc1N1CCN(C(=O)C(C)c2ccc(CC(C)C)cc2)CC1 (configuration not stated)", 0.983),
    ("Cc1ccc(OS(=O)(=O)c2c(Cl)sc(Cl)c2Br)c([N+](=O)[O-])n1", 0.965),
    ("CCn1nc(C)cc1C(=O)Sc1cccc(Br)c1", 0.921),
    ("Cc1ccc(Sc2ncccc2NS(=O)(=O)c2ccc(Cl)cc2)cc1", 0.919),
    ("O=C(OCc1ccccc1Br)c1cc([N+](=O)[O-])cc([N+](=O)[O-])c1", 0.973),
    ("O=C(NC(=S)NNc1ncc(C(F)(F)F)cc1Cl)c1cccs1", 0.624),
]

All values here come from PubChem BioAssay AID1159580.
